assay.method.text: protein stability index of a GFP-peptide fusion (yeast GPS) (PSI 1-4); higher = more stable; sorted into four equal gates, so the index is relative within each strain
test.conditions: san1∆
reported.metric: protein stability index

*Q* // query protein stability index value for entry YKKPTGGIVTVRSEMGE [FAS1]
*A* 1.32

*Q* Fill blank: measured protein stability index of the sequence SKQNGIEQSITKNIPIT [SSN8] is ____.
*A* 2.66

*Q* Endpoint output: protein stability index of TDVEKSDPAAKKTATEP [SRP21] . Value?
*A* 3.32

*Q* What protein stability index value was documented for this sequence, HNGRDKIQFHIHFADVA [RGR1] ?
*A* 1.43

*Q* What value of measured protein stability index is listed for RGIPRISTLFQRDRHTL [PRP8] ?
*A* 2.08

*Q* I have this sequence here, CNALIHIKFSAGTEANA [SRB4] , and I need its recorded protein stability index.
*A* 2.19

*Q* # input sequence: IAVLRSKEWFQLDDEDF [FAS1] ; wanted: its protein stability index
*A* 1.81

*Q* Looking for the measured protein stability index of TKAVEFSMGHIRSSSVS [MED4] , can you help?
*A* 3.18
